Recorded values, source patent US4476120A.

tested on: E. coli SS 04; assay type: cell-based; conditions: Brain Heart Infusion, estolate and RV11-RV15 previously hydrolized, unit assumed
metric: MIC
Kindly format the answer as number then unit.

Example results:
compound	tested target	result
CC[C@H]1OC(=O)[C@H](C)[C@@H](O[C@H]2C[C@@](C)(OC)[C@@H](O)[C@H](C)O2)[C@H](C)[C@@H](O[C@@H]2O[C@H](C)C[C@H](N(C)C)[C@H]2O)[C@](C)(O)C[C@@H](C)C(=O)[C@H](C)[C@@H](O)[C@]1(C)O [RV04, erythromycin-S-carboxymethylcysteinate]	E. coli SS 04	100 µg/mL
CC[C@H]1OC(=O)[C@H](C)[C@@H](O[C@H]2C[C@@](C)(OC)[C@@H](O)[C@H](C)O2)[C@H](C)[C@@H](O[C@@H]2O[C@H](C)C[C@H](N(C)C)[C@H]2O)[C@](C)(O)C[C@@H](C)C(=O)[C@H](C)[C@@H](O)[C@]1(C)O [RV03, erythromycyn-thiazolidin-carboxylate]	E. coli SS 04	100 µg/mL
CCC(=O)O[C@H]1[C@H](O[C@@H]2[C@@H](C)[C@H](O[C@H]3C[C@@](C)(OC)[C@@H](O)[C@H](C)O3)[C@@H](C)C(=O)O[C@H](CC)[C@@](C)(O)[C@H](O)[C@@H](C)C(=O)[C@H](C)C[C@@]2(C)O)O[C@H](C)C[C@@H]1N(C)C [RV14]	E. coli SS 04	100 µg/mL
CCC(=O)O[C@H]1[C@H](O[C@@H]2[C@@H](C)[C@H](O[C@H]3C[C@@](C)(OC)[C@@H](O)[C@H](C)O3)[C@@H](C)C(=O)O[C@H](CC)[C@@](C)(O)[C@H](O)[C@@H](C)C(=O)[C@H](C)C[C@@]2(C)O)O[C@H](C)C[C@@H]1N(C)C [RV11]	E. coli SS 04	50 µg/mL
CCC(=O)O[C@H]1[C@H](O[C@@H]2[C@@H](C)[C@H](O[C@H]3C[C@@](C)(OC)[C@@H](O)[C@H](C)O3)[C@@H](C)C(=O)O[C@H](CC)[C@@](C)(O)[C@H](O)[C@@H](C)C(=O)[C@H](C)C[C@@]2(C)O)O[C@H](C)C[C@@H]1N(C)C [erythromycin estolate, reference compound]	E. coli SS 04	100 µg/mL
CC[C@H]1OC(=O)[C@H](C)[C@@H](O[C@H]2C[C@@](C)(OC)[C@@H](O)[C@H](C)O2)[C@H](C)[C@@H](O[C@@H]2O[C@H](C)C[C@H](N(C)C)[C@H]2O)[C@](C)(O)C[C@@H](C)C(=O)[C@H](C)[C@@H](O)[C@]1(C)O [erythromycin]	E. coli SS 04	100 µg/mL

Reported MIC, compound CCC(=O)O[C@H]1[C@H](O[C@@H]2[C@@H](C)[C@H](O[C@H]3C[C@@](C)(OC)[C@@H](O)[C@H](C)O3)[C@@H](C)C(=O)O[C@H](CC)[C@@](C)(O)[C@H](O)[C@@H](C)C(=O)[C@H](C)C[C@@]2(C)O)O[C@H](C)C[C@@H]1N(C)C [RV13] : ____ 100 µg/mL

----------
assay: Acute toxicity; format: in vivo; conditions: i.v.; mortality 10 days after treatment; mice; 14400 min
As shown below, each of these compounds has a reported LD50 (reliability limits) value.

compound	result
CC[C@H]1OC(=O)[C@H](C)[C@@H](O[C@H]2C[C@@](C)(OC)[C@@H](O)[C@H](C)O2)[C@H](C)[C@@H](O[C@@H]2O[C@H](C)C[C@H](N(C)C)[C@H]2O)[C@](C)(O)C[C@@H](C)C(=O)[C@H](C)[C@@H](O)[C@]1(C)O [RV03, erythromycyn-thiazolidin-carboxylate]	491.96 (552.31-438.20) mg.kg
CC[C@H]1OC(=O)[C@H](C)[C@@H](O[C@H]2C[C@@](C)(OC)[C@@H](O)[C@H](C)O2)[C@H](C)[C@@H](O[C@@H]2O[C@H](C)C[C@H](N(C)C)[C@H]2O)[C@](C)(O)C[C@@H](C)C(=O)[C@H](C)[C@@H](O)[C@]1(C)O [RV04, erythromycin-S-carboxymethylcysteinate]	439.46 (545.44-354.08) mg.kg

Reported LD50 (reliability limits), compound CC[C@H]1OC(=O)[C@H](C)[C@@H](O[C@H]2C[C@@](C)(OC)[C@@H](O)[C@H](C)O2)[C@H](C)[C@@H](O[C@@H]2O[C@H](C)C[C@H](N(C)C)[C@H]2O)[C@](C)(O)C[C@@H](C)C(=O)[C@H](C)[C@@H](O)[C@]1(C)O [RV01, erythromycin alpha-mercaptosuccinate] : ____ 458.49 (518.06-405.77) mg.kg

Reported LD50 (reliability limits), compound CC[C@H]1OC(=O)[C@H](C)[C@@H](O[C@H]2C[C@@](C)(OC)[C@@H](O)[C@H](C)O2)[C@H](C)[C@@H](O[C@@H]2O[C@H](C)C[C@H](N(C)C)[C@H]2O)[C@](C)(O)C[C@@H](C)C(=O)[C@H](C)[C@@H](O)[C@]1(C)O [RV05, erythromycin-N-acetylcysteinate] : ____ 472.84 (529.08-442.57) mg.kg
